METRIC: melting point

> print(dat)
                                   molecule         metric         result
1  COc1cc2ncnc(N3CCN(C(=O)Nc4ccc(N(C)C)cc4)CC3)c2cc1OC  melting point  252 to 254 °C
2             COc1ccc2cc3c(cc2c1)C(=O)NC3=O  melting point       > 250 °C
3  Nc1cccc(CN2CCN(C(c3ccccc3)c3ccccc3)CC2)n1  melting point  144 to 145 °C

* * *

METRIC: melting point

> print(dat)
                                    compound         result
 1              CCOC(=O)c1sc2ccc(Cl)cc2c1CBr  148 to 150 °C
 2          O=c1c2ccccc2nc(CCl)n1-c1ccccc1Cl  195 to 196 °C
 3  CC1(C)Oc2ccc([N+](=O)[O-])cc2C2OC21 (stereo unspecified)    91 to 93 °C
 4                      Cc1ccccc1C=C(C#N)C=O        81.5 °C
 5  C#Cc1ccc(Nc2c(C(=O)NOCCO)ccc(F)c2F)c(Cl)c1  155 to 157 °C
 6  CN(C)C(=O)C(C)(C)n1ccc(-c2cc(Cl)ccc2Cl)n1    94 to 96 °C
 7  CC(C)C[C@H](NC(=O)OC(C)(C)C)[C@H](O)c1nccs1  121 to 122 °C
 8                  ClC1=Nc2ccccc2Sc2ccccc21    93 to 97 °C
 9      COc1cc(C)c(C(=O)c2c(Cl)cccc2Cl)cc1OC  101 to 103 °C
10  Cn1cc(C(=O)NCc2ccc(Cl)cc2)c(=O)c2cc(CC3CCOCC3)cc(I)c21  175 to 177 °C
11    COc1ccn2c(C)c(CCc3ccc4nc(N)oc4c3)nc2c1  220 to 221 °C

* * *

Measured melting point, listed per entry.
METRIC: melting point

> print(dat)
                                    compound         metric         result
 1  COc1cc(-c2nc3ccc(OCCN4CCCC4)cc3n2Cc2ccccc2C(F)(F)F)cc(OC)c1OC  melting point         143 °C
 2                    CCNc1nc(N)c(SC)c(Cl)n1  melting point         124 °C
 3             C=CCOc1cc(C(=O)OCC)nc2ccccc12  melting point    71 to 72 °C
 4    CCOc1cc2c(Nc3ccc(OC)cc3)c(C#N)cnc2nc1C  melting point  190 to 192 °C
 5        Nc1nc2c(Cc3ccsc3)c[nH]c2c(=O)[nH]1  melting point  222 to 224 °C
 6                CCc1nc2cc(Cn3ccnc3)ccc2n1C  melting point         127 °C
 7  COc1ccc(CCN2CCC(C(=O)c3csc4ccccc34)CC2)cc1  melting point  114 to 116 °C
 8                    O=C/C=C/c1cccc(Cl)c1Cl  melting point    94 to 95 °C
 9  NCc1nnc(-c2ncn3c2[C@@H]2CCCN2C(=O)c2sccc2-3)o1  melting point  214 to 216 °C
10                CC1(C)CC(=O)c2ccc(Cl)cc2O1  melting point    63 to 66 °C
11  CC1(c2ccccc2)OCC(=O)N(CCCN2C(=O)c3ccccc3C2=O)c2ccc(Cl)cc21 (stereo unspecified)  melting point  151 to 153 °C
12  O=S1(=O)CCN2C=CC=C(c3ccc(Oc4ccc(F)cc4)cc3)C2=N1  melting point  266 to 267 °C
13  CCOC(=O)C(N=C(c1cc(Cl)ccc1N)c1ccccc1F)C(=O)OCC  melting point         119 °C
14  COCOc1ccc(/C=C/C(=O)/C=C/c2ccc(OCOC)c(OCOC)c2)cc1OCOC  melting point    86 to 88 °C
15       O=C1C(Cl)=C(c2ccccc2)C(=O)c2ccccc21  melting point  111 to 112 °C
16                     CNC(=O)c1cccc(C=O)c1O  melting point  129 to 131 °C
17   COC(=O)c1ccc(C(=O)c2ccc(NC(C)=O)cc2)cc1  melting point         212 °C
18  O=C(Nc1cc(-c2ccnc3c(C(=O)c4cccs4)cnn23)ccc1F)c1c(F)cccc1F  melting point  198 to 200 °C
19  CCOC(=O)c1cn2c3c(c(F)c(Cl)cc3c1=O)OCC2C (stereo unspecified)  melting point  263 to 264 °C
20  COc1cc(OC)cc(C2=NC(CO)Cc3cc(OC)c(OC)cc32)c1 (stereo unspecified)  melting point    59 to 62 °C
21  CCC1(CCCCN2CCN(c3cccc4c3OCCO4)CC2)C(=O)Nc2ccccc21 (stereo unspecified)  melting point  169 to 170 °C
22  O=C1Nc2ccc(Oc3ccccc3)cc2SC(c2ccc3c(c2)OCO3)C1O (stereo unspecified)  melting point  228 to 230 °C
23  CCc1nn(C2CCCC2)c2c1CCn1c(-c3cccs3)nnc1-2  melting point         126 °C
24        COc1ccc(OC)c(CN2CCc3cc(O)ccc3C2)c1  melting point  178 to 192 °C
25      CON=CC1=CCCN(C(=O)OCC(=O)N2CCCCC2)C1  melting point    93 to 94 °C
26      COc1ccc(-c2nccc3c(CC(=O)O)cccc23)cc1  melting point  210 to 211 °C
27  CC12CCC(O)CC1=CCC1C2CCC2(C)C(n3ncnn3)=CCC12 (stereo unspecified)  melting point  195 to 198 °C
28  O=C(O)CCC(=O)Nc1cc(C(=O)O)cc([N+](=O)[O-])c1  melting point  220 to 221 °C
29           C[C@@H](O)Cn1ncc2ccc(O)c(Br)c21  melting point  134 to 136 °C
30  COc1cc(F)cc(-c2ccc3c(c2)C(C)(C)OC(=O)N3)c1  melting point  181 to 182 °C
31  CC1(C)OCC(c2nc3c(C(F)(F)F)cccc3c(O)c2C(=O)Nc2nccs2)O1 (stereo unspecified)  melting point         250 °C
32           O=C(Cl)c1ccc(Cl)cc1[N+](=O)[O-]  melting point    95 to 96 °C
33  CC(=O)N1CCO[C@@H]2c3ccccc3OCC[C@H]21 (relative stereo)  melting point    97 to 98 °C
34  O=C(c1ccc(Br)cc1Cl)c1cccc2c1Nc1ncccc1CN2  melting point  165 to 168 °C
35                 OCc1cnoc1-c1ccc(F)c(Br)c1  melting point  134 to 135 °C
36  O=S(=O)(Nc1cccc(CCOCc2ccc(-c3ccc(Cl)cc3)cc2)c1)C(F)(F)F  melting point    69 to 70 °C

* * *

Measured melting point, listed per entry.
METRIC: melting point

> print(dat)
                                   molecule         metric         result
1  OCc1cn(Cc2ccc3cc(OCc4ccccc4)ccc3c2)cc1-c1ccccc1  melting point  116 to 117 °C
2  COc1cc2nc(N3CCN(C(=O)C=Cc4ccc(Cl)c(Cl)c4)CC3)nc(N)c2cc1OC  melting point  196 to 198 °C
3  N#Cc1ccc(NCC(=O)Nc2c(Cl)ccc3nc(N4CC[C@@H](O)C4)ccc23)cc1  melting point  230 to 233 °C
4  COc1ccc(C(=O)Cc2c(Cl)cncc2Cl)c2c1OC1(CCCC1)O2  melting point  110 to 112 °C

* * *

Measured melting point, listed per entry.
METRIC: melting point

> print(dat)
                                   molecule         result
1  O=C(Nc1ccc2[nH]c(=O)oc2c1)C(=O)N1CCC(Cc2ccc(O)cc2)CC1  235 to 239 °C
2  S=C1CN=C(c2ccccc2Cl)c2cc(CCc3ccc(Cl)cc3)sc2N1  201 to 203 °C
3               COCc1cnc(C(=O)O)c(C(=O)O)c1  161 to 162 °C
4  CC(C)N1CC(C(=O)c2c[nH]c(Cc3ccc(F)cc3)n2)=C(O)C1=O         220 °C
5            O=C(O)CNC(=O)C1(CS)Cc2ccccc2C1  137 to 143 °C

* * *

METRIC: melting point

> print(dat)
                                    compound         metric         result
 1  CCCCCCCCCCCCCCCCCC(=O)c1ccc(O)c(C(=O)O)c1  melting point  128 to 132 °C
 2     CCCCOCCOC(=O)C(=O)Nc1nc(-c2ccccc2)cs1  melting point    94 to 95 °C
 3  O=[N+]([O-])c1ccc(NS(=O)(=O)c2ccccc2)c(Cl)c1  melting point  155 to 157 °C
 4  OC(Cn1cncn1)(c1ccc(Oc2ccc(Cl)cc2)cc1Cl)C1CC1 (stereo unspecified)  melting point         170 °C
 5             CCCCCC(=O)c1ccc(O)c(C(=O)O)c1  melting point    48 to 49 °C
 6               Cc1nccc2[nH]c(=O)c(C#N)cc12  melting point  275 to 277 °C
 7  COc1ccc(CNCCCOc2ccc(NC(=O)c3cccc4c(=O)c5ccccc5[nH]c34)cc2)cc1OC  melting point  138 to 139 °C
 8  CCOCOC(CCC(C(=O)NC)C(C)C(O)c1ccccc1)c1ccc(F)cc1 (stereo unspecified)  melting point    91 to 92 °C
 9  Cc1ccncc1C(O)c1ccc2cc(C(=O)OC(C)C)ccc2c1 (stereo unspecified)  melting point  180 to 183 °C
10               Cc1ncc(COC(=O)c2ccncc2)cc1O  melting point         180 °C
11  CC(Oc1ccc(N(C)c2cc3ccc(Cl)cc3c(Cl)n2)cc1)C(=O)O (stereo unspecified)  melting point         136 °C
12                  CCOC(=O)CSc1cc(C)nc(N)n1  melting point    65 to 69 °C
13  CCC(=O)OC(CC)c1nc2c(C(F)(F)F)cccc2c(O)c1C(=O)Nc1nccs1 (stereo unspecified)  melting point         187 °C
14  CC1CC(=O)NN=C1c1ccc(N2CCC(C(=O)O)CC2)c([N+](=O)[O-])c1 (stereo unspecified)  melting point         214 °C
15  CCN1C(=O)C(C)(C)C(=O)N(C)c2cc(CN(CCn3cc(C)c4occc4c3=O)Cc3cnc(C)nc3)ccc21  melting point  166 to 167 °C
16  CCCCCCC(O)CCCCCCCCCCC(N)=O (stereo unspecified)  melting point    98 to 99 °C
